cytotoxicity log GI50 values for the compounds below.
system: HT 29; assay: in vitro colon cancer cell growth inhibition (NCI screen)
property.name: cytotoxicity log GI50 (M)

compound	unit.abbrev	measured.value
O=C1c2ccccc2C(=O)c2[nH]c(Cc3ccccc3F)nc21	M	-4.49
Cc1nc2c(n1C(C)(C)C)C(=O)c1ccccc1C2=O	M	-4.36
Cc1nc2c(n1Cc1ccc(F)cc1)C(=O)c1ccccc1C2=O	M	-5.03
CC(=O)NC1=C(NCCCl)C(=O)c2ccccc2C1=O	M	-4.58
CCc1nc2c(n1CC)C(=O)c1ccccc1C2=O	M	-4.60
COc1ccc(Cn2c(C)nc3c2C(=O)c2ccccc2C3=O)cc1	M	-5.31
CCCC(C)n1c(C)nc2c1C(=O)c1ccccc1C2=O (stereo not shown)	M	-4.76
CCNC1=C(NC(=O)c2ccc(F)cc2)C(=O)c2ccccc2C1=O	M	-4.65
CCCc1nc2c(n1CC)C(=O)c1ccccc1C2=O	M	-4.73
CCNC1=C(NC(=O)CC)C(=O)c2ccccc2C1=O	M	-4.46

---

test system: HCC-2998; experiment: in vitro colon cancer cell growth inhibition (NCI screen)
cytotoxicity log GI50 values for the molecules below.

compound.structure.string	cytotoxicity log GI50 [M]
COC(=O)CCCC(=O)NC1=C(NCc2ccccc2)C(=O)c2ccccc2C1=O	-4.49
CCCc1nc2c(n1CC)C(=O)c1ccccc1C2=O	-4.51
CCNC1=C(NC(=O)c2ccc(OC)cc2)C(=O)c2ccccc2C1=O	-4.43
CCNC1=C(NC(=O)c2ccc(F)cc2)C(=O)c2ccccc2C1=O	-4.46
COC(=O)CCCC(=O)NC1=C(Nc2ccc(OC)cc2)C(=O)c2ccccc2C1=O	-4.69

---

tested on: XF-498; test: in vitro CNS cancer cell growth inhibition (NCI screen)

compound	subject.of.test	cytotoxicity log GI50
Cc1nc2c(n1C(C)(C)C)C(=O)c1ccccc1C2=O [Compound 8]	XF-498	-4.36 M
CCC(C)(C)n1c(C)nc2c1C(=O)c1ccccc1C2=O [Compound 12]	XF-498	-4.77 M
CC(=O)NC1=C(NCC(C)(C)C)C(=O)c2ccccc2C1=O [Compound 38]	XF-498	-4.59 M
CC(=O)NC1=C(NC(C)(C)C)C(=O)c2ccccc2C1=O [Compound 32]	XF-498	-4.95 M
CC(=O)NC1=C(NCc2ccc(Cl)cc2)C(=O)c2ccccc2C1=O [Compound 42]	XF-498	-5.84 M
CCC(c1ccc(F)cc1)c1nc2c(n1CC)C(=O)c1ccccc1C2=O (stereo not drawn) [Compound 65]	XF-498	-4.70 M
O=C(Cc1ccc(F)cc1)NC1=C(Cl)C(=O)c2ccccc2C1=O [Compound 2j]	XF-498	-5.71 M
CC(=O)NC1=C(NCC(C)C)C(=O)c2ccccc2C1=O [Compound 31]	XF-498	-4.85 M
CCC(C)(C)NC1=C(NC(C)=O)C(=O)c2ccccc2C1=O [Compound 36]	XF-498	-4.84 M

---

cytotoxicity log GI50 values for the compounds below.
system: UO-31; assay: in vitro renal cancer cell growth inhibition (NCI screen)

compound	cytotoxicity log GI50 / M
CC(=O)NC1=C(NCC(C)C)C(=O)c2ccccc2C1=O [Compound 31]	-4.74
Cc1nc2c(n1C(C)(C)C)C(=O)c1ccccc1C2=O [Compound 8]	-4.43
COc1ccc(CNC2=C(NC(C)=O)C(=O)c3ccccc3C2=O)cc1 [Compound 41]	-5.02
Cc1nc2c(n1CCCl)C(=O)c1ccccc1C2=O [Compound 21]	-6.22
CCC(C)(C)NC1=C(NC(C)=O)C(=O)c2ccccc2C1=O [Compound 36]	-4.56
CC(=O)NC1=C(NCC(C)(C)C)C(=O)c2ccccc2C1=O [Compound 38]	-4.33
O=C(O)CCc1nc2c(n1Cc1ccccc1)C(=O)c1ccccc1C2=O [Compound 61]	-4.51
Cc1nc2c(n1CC(C)C)C(=O)c1ccccc1C2=O [Compound 7]	-4.58
CCC(CC)n1c(C)nc2c1C(=O)c1ccccc1C2=O [Compound 10]	-4.71
CCn1c(Cc2ccc(F)cc2)nc2c1C(=O)c1ccccc1C2=O [Compound 66]	-5.33
CC(=O)NC1=C(NCc2ccc(Cl)cc2)C(=O)c2ccccc2C1=O [Compound 42]	-5.29

---

test system: MDA-MB-435; assay: in vitro breast cancer cell growth inhibition (NCI screen)
property.name: cytotoxicity log GI50 (M)

compound.structure.string	unit.abbrev	measured.value
CCCc1nc2c(n1CC)C(=O)c1ccccc1C2=O	M	-4.76
COC(=O)CCC(=O)NC1=C(Nc2ccccc2)C(=O)c2ccccc2C1=O	M	-5.67
CC(=O)NC1=C(NCCCl)C(=O)c2ccccc2C1=O	M	-4.78
COc1ccc(-n2c(CCCC(=O)O)nc3c2C(=O)c2ccccc2C3=O)cc1	M	-4.58
O=C(NC1=C(Cl)C(=O)c2ccccc2C1=O)c1ccccc1	M	-4.72
CCNC1=C(NC(=O)c2ccc(OC)cc2)C(=O)c2ccccc2C1=O	M	-4.77
COC(=O)CCCC(=O)NC1=C(Nc2ccc(OC)cc2)C(=O)c2ccccc2C1=O	M	-4.74
COC(=O)CCC(=O)NC1=C(NCc2ccccc2)C(=O)c2ccccc2C1=O	M	-4.72
CCn1c(-c2ccccc2)nc2c1C(=O)c1ccccc1C2=O	M	-4.80
CCCC(=O)NC1=C(NCC)C(=O)c2ccccc2C1=O	M	-4.60
COC(=O)CCCC(=O)NC1=C(Nc2ccccc2)C(=O)c2ccccc2C1=O	M	-5.26
CCNC1=C(NC(=O)c2ccc(F)cc2)C(=O)c2ccccc2C1=O	M	-4.74
O=C(O)CCc1nc2c(n1Cc1ccccc1)C(=O)c1ccccc1C2=O	M	-4.72
COC(=O)CCCC(=O)NC1=C(NCc2ccccc2)C(=O)c2ccccc2C1=O	M	-4.37
Cc1nc2c(n1CCCl)C(=O)c1ccccc1C2=O	M	-4.82
COC(=O)CCC(=O)NC1=C(Nc2ccc(OC)cc2)C(=O)c2ccccc2C1=O	M	-5.69
CCNC1=C(NC(=O)c2ccccc2)C(=O)c2ccccc2C1=O	M	-5.14
CCc1nc2c(n1CC)C(=O)c1ccccc1C2=O	M	-4.74

---

tested on: COLO-205; test: in vitro colon cancer cell growth inhibition (NCI screen)
property.name: cytotoxicity log GI50 (M)

molecule	measured.value
CCn1c(C)nc2c1C(=O)c1ccccc1C2=O [Compound 5]	-6.45
CC(=O)NC1=C(NCc2ccc(Cl)cc2)C(=O)c2ccccc2C1=O [Compound 42]	-5.27
CCn1c(-c2ccccc2)nc2c1C(=O)c1ccccc1C2=O [Compound 25]	-4.85
COc1ccc(-n2c(CCCC(=O)O)nc3c2C(=O)c2ccccc2C3=O)cc1 [Compound 59]	-4.43
CC(=O)NC1=C(NCCN(C)C)C(=O)c2ccccc2C1=O [Compound 39]	-5.00
CCNC1=C(NC(=O)c2ccc(F)cc2)C(=O)c2ccccc2C1=O [Compound 48]	-4.58
Cc1nc2c(n1CCCl)C(=O)c1ccccc1C2=O [Compound 21]	-4.85
COC(=O)CCC(=O)NC1=C(NCc2ccccc2)C(=O)c2ccccc2C1=O [Compound 55]	-4.69
Cc1nc2c(n1CCO)C(=O)c1ccccc1C2=O [Compound 16]	-4.72
CCC(CC)n1c(C)nc2c1C(=O)c1ccccc1C2=O [Compound 10]	-4.57

---

cytotoxicity log GI50 values for the molecules below.
system: RXF-393; assay: in vitro renal cancer cell growth inhibition (NCI screen)

molecule	subject.of.test	unit.abbrev	cytotoxicity log GI50
O=C(O)CCc1nc2c(n1Cc1ccccc1)C(=O)c1ccccc1C2=O	RXF-393	M	-4.60
CCNC1=C(NC(=O)c2ccc(F)cc2)C(=O)c2ccccc2C1=O	RXF-393	M	-4.53
COc1ccc(C(=O)NC2=C(Cl)C(=O)c3ccccc3C2=O)cc1	RXF-393	M	-6.23
CCC(C)(C)n1c(C)nc2c1C(=O)c1ccccc1C2=O	RXF-393	M	-4.68
O=C(NC1=C(Cl)C(=O)c2ccccc2C1=O)c1ccccc1	RXF-393	M	-4.72
CCC(C)n1c(C)nc2c1C(=O)c1ccccc1C2=O (stereo not drawn)	RXF-393	M	-4.57
CCC(c1ccccc1F)c1nc2c(n1CC)C(=O)c1ccccc1C2=O (stereo not drawn)	RXF-393	M	-5.53
CCCC(=O)NC1=C(NCC)C(=O)c2ccccc2C1=O	RXF-393	M	-4.32
O=C(Cc1ccc(F)cc1)NC1=C(Cl)C(=O)c2ccccc2C1=O	RXF-393	M	-5.75
CCC(c1ccc(F)cc1)c1nc2c(n1CC)C(=O)c1ccccc1C2=O (stereo not drawn)	RXF-393	M	-4.83
CC(=O)NC1=C(NCC(C)(C)C)C(=O)c2ccccc2C1=O	RXF-393	M	-4.43
O=C1c2ccccc2C(=O)c2[nH]c(Cc3ccccc3F)nc21	RXF-393	M	-4.69
CCn1c(-c2ccccc2)nc2c1C(=O)c1ccccc1C2=O	RXF-393	M	-4.81
CCC(C)(C)NC1=C(NC(C)=O)C(=O)c2ccccc2C1=O	RXF-393	M	-4.60
NC1=C(NC(=O)Cc2ccc(F)cc2)C(=O)c2ccccc2C1=O	RXF-393	M	-4.68
CCNC1=C(NC(=O)c2ccc(OC)cc2)C(=O)c2ccccc2C1=O	RXF-393	M	-4.55
NC1=C(NC(=O)Cc2ccccc2F)C(=O)c2ccccc2C1=O	RXF-393	M	-4.46
CCn1c(-c2cc(OC)cc(OC)c2)nc2c1C(=O)c1ccccc1C2=O	RXF-393	M	-4.86
O=C1c2ccccc2C(=O)c2[nH]c(Cc3ccc(F)cc3)nc21	RXF-393	M	-5.16
Cc1nc2c(n1Cc1ccc(F)cc1)C(=O)c1ccccc1C2=O	RXF-393	M	-4.83
CCNC1=C(NC(=O)CC)C(=O)c2ccccc2C1=O	RXF-393	M	-4.32
CC(=O)NC1=C(NCC(C)C)C(=O)c2ccccc2C1=O	RXF-393	M	-4.90
CCNC1=C(NC(=O)CCl)C(=O)c2ccccc2C1=O	RXF-393	M	-4.78
COc1cc(OC)cc(C(=O)NC2=C(Cl)C(=O)c3ccccc3C2=O)c1	RXF-393	M	-6.28
CCNC1=C(NC(=O)c2ccccc2)C(=O)c2ccccc2C1=O	RXF-393	M	-4.62
CCc1nc2c(n1CC)C(=O)c1ccccc1C2=O	RXF-393	M	-4.70
O=C(NC1=C(Cl)C(=O)c2ccccc2C1=O)c1ccc(F)cc1	RXF-393	M	-5.90
CC(=O)NC1=C(NCc2ccc(Cl)cc2)C(=O)c2ccccc2C1=O	RXF-393	M	-5.37
CCn1c(-c2ccc(F)cc2)nc2c1C(=O)c1ccccc1C2=O	RXF-393	M	-4.27
Cc1nc2c(n1CCCl)C(=O)c1ccccc1C2=O	RXF-393	M	-6.78
